Test: Cmax in dog at 0.5 mg/kg
Type: ADME, organism-based, Canis lupus familiaris
Set-up: dose 0.5 mg/kg
Details: in vivo
measurement_label: Cmax

Cmax reported for this compound CC(C)(C)CC(c1ccc(CC(=O)O)cc1-c1ccc(C(F)(F)F)cc1)N1CCC(C(F)(F)F)CC1 (racemic) : 1120 ng/mL

----------
Test: Oral bioavailability in wild type CF1 mouse
Type: ADME, organism-based
Conditions: in vivo
measurement_label: bioavailability (%)
// units = %; emit number, no label

bioavailability reported for this compound CC(C)CCC(c1ccc(CC(=O)O)cc1-c1ccc(C(F)(F)F)cc1)N1CCC(C(F)(F)F)CC1 (stereo unspecified) : 100
